System: CBC (HapB/HapC/HapE core CCAAT-binding complex) (Aspergillus fumigatus)
protocol_summary: SPR
condition: SPR Biacore T200, 25 C; 10 mM phosphate pH 7.4, 2.7 mM KCl, 137 mM NaCl, 1 mM DTT, 0.005% surfactant P20, 10 ug/ml poly(dI-dC); biotin-DNA on streptavidin CM3 …
endpoint_name: Kd (nM)
Quick reminder: number only, in nM, skip the unit.

Which value of Kd has been reported for AAATCCACCAATCAACGCCTCCGTGATTGTCAGCAAT (double strand) [cccAp-369-37] in the records?
0.7
